Where these numbers come from: patent US20190092852A1

- target desc: T1, human IL-33 (R&D Systems, #3625-IL-010/CF) (human, UniProt O95760 112-270)
- T1 sequence (looked up): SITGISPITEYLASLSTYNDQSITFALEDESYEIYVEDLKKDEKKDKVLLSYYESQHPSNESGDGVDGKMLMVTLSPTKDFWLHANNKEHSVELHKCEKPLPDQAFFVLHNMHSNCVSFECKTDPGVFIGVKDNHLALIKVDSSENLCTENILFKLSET
- assay notes: cell-based or functional assay
value type: IC50; IFN-gamma ELISA, primary human NK cells, 260 pM hIL-33 + IL-12 (M)
Answers are plain numbers, in M.

Please review the entries below; each comes with its answer.
binder="H4H9633P (antibody, IgG4, V domains shown, also called RG5) VH: EVQLVESGGGLVQPGGSLRLSCAASGFTFSSYVMSWVRQAPGKGLEWVSSISGNGGSTNYADSVKGRFTISRDNSKNTLFLEMNSLRAEDTAVYYCAKSLGTTTTFLGFDYWGQGTLVTVSS VL: DIQMTQSPSSVSASVGDRVTITCRASQGISSWLAWYQQKPGKAPKLLIYAASSLQSGVPSRFSGSGSGTYFTLTISSLQPEDFATYYCQQANSFPLTFGGGTKVEIK" endpoint_value=4.1e-08
binder="H4H9659P (antibody, IgG4, V domains shown, also called RG7) VH: QVQLVQSGAEVKKPGASVKVSCKASGYTFNSYGISWVRQAPGQGLEWMGWISSHNGNSHYVQKFQGRVSMTTDTSTSTAYMELRSLRSDDTAVYYCARHSYTTSWYGGFDYWGQGTLVTVSS VL: DIQMTQSPSSVSASVGDRVTITCRASQGFSSWLAWYQQKPGKAPQLLIYAASSLQSGVPSRFSGSGSGSDFTLTISSLQPEDFATYYCQQANSFPLTFGGGTKVEIK" endpoint_value=5.1e-10
binder="H4H9640P (antibody, IgG4, V domains shown, also called RG6) VH: QVQLQESGPGLVKPSETLSLTCTVSGGSISSYYWSWIRQPPGKGLELIGYIYYSGSTNYNPSLKSRVTISVDTSKNHFSLKLSSVTAADTAVYYCARSQYTSSWYGSFDIWGQGTMVTVSS VL: DIQMTQSPSSVSASVGDRVTITCRASQGISTWLAWFQQKPGKAPKLLIYAASTLQGGVPSRFSGSGSGPEFTLTISSLQPEDFATYYCQQANSFPWTFGQGTKVEIK" endpoint_value=2.4e-09

Now for the binder whose IC50; IFN-gamma ELISA, primary human NK cells, 260 pM hIL-33 + IL-12 we want.
Requested field: IC50; IFN-gamma ELISA, primary human NK cells, 260 pM hIL-33 + IL-12. Item: 10C12.38.H6.87Y.58I IgG4 (antibody, V domains shown, also called anti-IL33 10C12.38.H6.87Y.58I IgG4) VH: EVQLVESGGGLVQPGGSLRLSCAASGFTFSSFSMSWVRQAPGKGLEWVATISGGKTFTDYVDSVKGRFTISRDDSKNTLYLQMNSLRAEDTAVYYCTRANYGNWFFEVWGQGTLVTVSS VL: EIVLTQSPATLSLSPGERATLSCRASESVAKYGLSLLNWFQQKPGQPPRLLIFAASNRGSGIPARFSGSGSGTDFTLTISSLEPEDFAVYYCQQSKEVPFTFGQGTKVEIKR
3.3e-11
